Target: Nrf2-Keap1 complex (Homo sapiens, UniProt Q14145)
Sequence (Q14145 whole entry, one chain of several): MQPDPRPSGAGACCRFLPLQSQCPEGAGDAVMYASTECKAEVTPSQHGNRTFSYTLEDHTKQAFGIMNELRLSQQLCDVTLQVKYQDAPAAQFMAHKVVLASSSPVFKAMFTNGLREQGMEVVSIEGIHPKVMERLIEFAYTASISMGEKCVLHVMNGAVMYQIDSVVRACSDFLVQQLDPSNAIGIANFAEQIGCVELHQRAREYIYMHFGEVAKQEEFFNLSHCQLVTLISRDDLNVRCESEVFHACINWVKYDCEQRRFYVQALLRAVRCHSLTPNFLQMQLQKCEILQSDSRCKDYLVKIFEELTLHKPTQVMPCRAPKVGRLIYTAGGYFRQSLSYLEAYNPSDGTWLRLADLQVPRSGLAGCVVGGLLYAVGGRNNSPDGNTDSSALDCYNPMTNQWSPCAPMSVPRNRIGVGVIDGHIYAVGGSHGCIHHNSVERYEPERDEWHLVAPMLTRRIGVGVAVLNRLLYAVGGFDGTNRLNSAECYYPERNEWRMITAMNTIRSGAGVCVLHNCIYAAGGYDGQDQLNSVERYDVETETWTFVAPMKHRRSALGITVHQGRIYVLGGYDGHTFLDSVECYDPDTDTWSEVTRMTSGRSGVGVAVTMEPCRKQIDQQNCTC
Test: cell-based
Assay type: cell-based
Settings: Table 2; 100 nL compound; screen run at 16 and 32 μM, 3 hr
Criterion: 100 nL (luminescence) meeting or surpassing 1000. Met: rule met. Not met: rule not met.

COc1ccc(/C=C/C(=O)c2cc(O)ccc2O)cc1 [2′,5′-DIHYDROXY-4-METHOXYCHALCONE] : rule met
CC(=O)O[C@H]1C[C@@H](O)C(C)(C)[C@@H]2C[C@@H](OC(C)=O)[C@]3(C)[C@H](CC[C@@]4(C)[C@@H](c5ccoc5)OC(=O)[C@H]5O[C@@]534)[C@@]12C [3-DEACETYLKHIVORIN] : rule met
COc1cc([C@@H]2c3cc4c(cc3[C@H](OC(C)=O)[C@H]3COC(=O)[C@H]23)OCO4)cc(OC)c1OC [PODOPHYLLOTOXINACETATE] : rule not met
CC(=O)O[C@@H]1CC2C(C)(C)[C@H](O)CC[C@]2(C)C2CC[C@@]3(C)[C@H](c4ccoc4)OC(=O)C4OC43[C@@]21C (stereo partly drawn) [alpha-DIHYDROGEDUNOL] : rule not met
COc1ccc(-c2oc3cc(O[C@@H]4O[C@H](CO)[C@@H](O)[C@H](O)[C@H]4O)c(OC)c(O)c3c(=O)c2OC)cc1O [CENTAUREIN] : rule not met
Oc1nc2cc(Cl)c(Cl)cc2nc1O [2,3-DIHYDROXY-6,7-DICHLOROQUINOXALINE] : rule met
COc1cc(O)c2c(=O)c(O)c(-c3ccc(O)c(O)c3)oc2c1 [RHAMNETIN] : rule met
N.N.[Cl][Pt][Cl] [CISPLATIN, reference compound] : rule met
O=C(/C=C/c1ccccc1)c1ccc(O)cc1O [2′,4′-DIHYDROXYCHALCONE] : rule met
CC1(C)C=CC(=O)[C@@]2(C)C1CC(=O)[C@]1(C)C2CC[C@@]2(C)[C@H](c3ccoc3)OC(=O)C3OC321 (some centres unmarked) [DEACETOXY-7-OXISOGEDUNIN] : rule met
CC(=O)O[C@@H]1CC2C(C)(C)C=CC(=O)[C@]2(C)C2CC[C@@]3(C)[C@H](c4ccoc4)OC(=O)C4OC43[C@@]21C (some centres unmarked) [ISOGEDUNIN] : rule met
CC(C)[C@@H](C)/C=C/[C@@H](C)[C@H]1CC[C@H]2C3=CC=C4C[C@@H](O)CC[C@]4(C)[C@H]3CC[C@]12C [ERGOSTEROL] : rule met
COC(=O)[C@H](O)[C@H]1C(C)(C)[C@H](OC(C)=O)[C@@H]2CC3=C4CC(=O)O[C@@H](c5ccoc5)[C@]4(C)CC[C@@H]3[C@@]1(C)C2=O [SWIETENOLIDE-3-ACETATE] : rule met
CNC(=O)CSP(=S)(OC)OC [DIMETHOATE] : rule met
ClC1=C(Cl)C2(Cl)C3C(Cl)C(Cl)CC3C1(Cl)C2(Cl)Cl (centres unmarked) [CHLORDANE] : rule met
CC(=O)O[C@@H]1CC2C(C)(C)C(=O)C3OC3[C@]2(C)C2CC[C@@]3(C)[C@H](c4ccoc4)OC(=O)C4OC43[C@@]21C (some centres unmarked) [EPOXYGEDUNIN] : rule not met
CCCCC1C(=O)N(c2ccccc2)N(c2ccc(O)cc2)C1=O (centres unmarked) [OXYPHENBUTAZONE, reference compound] : rule met
Cc1c(O)c(O)cc2c1CC=C1[C@@]2(C)CC[C@@]2(C)[C@@H]3C[C@](C)(C(=O)O)CC[C@]3(C)CC[C@]12C [DIHYDROCELASTROL] : rule met
O=CC=Cc1ccc(O)cc1 [p-HYDROXYCINNAMALDEHYDE] : rule met
